Reference source: paper PMC10605006

Target: NTD (SARS-CoV-2)
Assay: fluorescence anisotropy
Conditions: Anisotropy: 50 mM Na phosphate pH 6.5, 150 mM NaCl, 1 mM NaN3, 50 nM RNA; EMSA: 20 mM Tris pH 7.5, 150 mM NaCl, 1 mM DTT, room temp, 25 uM RNA; NTD NMR: 20 mM …
REPORTED_METRIC: Kd

INPUT_SEQUENCE: GGCACAUGGACGUC / GACGUCCAUGUGCC [ds-14mer]
MEAS_VALUE: 30 µM
